- STUDY_SYSTEM: 15-hydroxyprostaglandin dehydrogenase [NAD(+)] (Homo sapiens)
- EXPERIMENT_SUMMARY: qHTS Assay for Inhibitors of HPGD (15-Hydroxyprostaglandin Dehydrogenase); note: % is set by controls: 0 for no effect and ±100 for the full control effect
- APPLIED_CONDITIONS: purified HPGD, NADH fluorescence kinetic, PGE2 substrate; stronger effect = lower value
Screen size: about 150,000 compounds; about 6,500 (4.3%) were called active. Not shown: some 12% with an inconclusive outcome. Only a selection was taken, and actives are over-represented in it overall.
ASSAY_ENDPOINT: activity change, negative = inhibition (%)
Record the value in %, omitting the unit from your answer.

Return activity change, negative = inhibition for the following compound: CCOC(=O)c1c(C)[nH]c(C(=O)COc2ccc3c(c2)OCO3)c1C
-6.28

Return activity change, negative = inhibition for the following compound: Cc1ccc(NC(=O)NC(=O)N(C2CCCCC2)S(=O)(=O)c2ccccc2)cc1
-16

Return activity change, negative = inhibition for the following compound: COc1ccc(S(=O)(=O)NC(C)C(=O)Nc2cccc([N+](=O)[O-])c2)cc1 (stereo not drawn)
-10.4

Return activity change, negative = inhibition for the following compound: Cc1ccc(C(=O)/C=C/Nc2ccc(S(=O)(=O)Nc3onc(C)c3C)cc2)cc1
-26.4

Return activity change, negative = inhibition for the following compound: COc1cccc2c(O)cc(=O)n(C)c12
-2.82

Return activity change, negative = inhibition for the following compound: Nc1ccc(-c2sc(N)nc2-c2ccccc2)cc1
-11

Return activity change, negative = inhibition for the following compound: CCN(C(=O)COC(=O)c1c(NC(C)=O)sc(C)c1C)C1CCS(=O)(=O)C1 (stereo not drawn)
-23.1

Return activity change, negative = inhibition for the following compound: CC1=C[C@H]2Cc3cc(C)cc(C)c3S(=O)(=O)[C@@H]2C=C1
-8.5

Return activity change, negative = inhibition for the following compound: O=C(CN1C2=NCCN2c2ccccc21)c1cccs1
-3.36

Return activity change, negative = inhibition for the following compound: O=C(c1ccccc1-c1ccccc1)N1CCOCC1
-1.91

Return activity change, negative = inhibition for the following compound: O=C(OCC(=O)c1c[nH]c2ccccc12)c1cccc(O)c1
-8.39

Return activity change, negative = inhibition for the following compound: CCN(C(=O)CSc1ncn[nH]1)c1cccc2ccccc12
-11.5

Return activity change, negative = inhibition for the following compound: COC(=O)/C(=C1\Oc2ccc(C(C)(C)C)cc2S1)C(F)(F)F
-12.2

Return activity change, negative = inhibition for the following compound: O=C(O)C1CC=CCC1C(=O)Nc1ccccc1C(=O)N1CCN(c2ccccc2)CC1 (stereo not drawn)
-1.15

Return activity change, negative = inhibition for the following compound: C/C=C/c1ccc(OCCOc2ccc(C=O)cc2OC)c(OC)c1
-16.6

Return activity change, negative = inhibition for the following compound: Cc1cccc(N2CCN(C(=O)/C=C/c3ccco3)CC2)c1C
-20.4

Return activity change, negative = inhibition for the following compound: O=C(NCc1ccco1)c1cc(-c2cccnc2)nc2ccc(Cl)cc12
-28

Return activity change, negative = inhibition for the following compound: CCOC(=O)c1nnn(-c2nc(OC)nc(N(C)C)n2)c1-c1ccccc1
-1.76

Return activity change, negative = inhibition for the following compound: O=C(Cc1cccs1)Nc1cccc(-c2nc3ccccc3[nH]2)c1
-8.46

Return activity change, negative = inhibition for the following compound: Cc1c(Br)c([N+](=O)[O-])nn1CC(=O)Nc1sc2c(c1C(=O)OC(C)C)CCC(C)C2 (stereo not drawn)
-1.95

Return activity change, negative = inhibition for the following compound: O=C(NCc1ccco1)C1(c2ccc(Cl)cc2)CCCC1
-8.03

Return activity change, negative = inhibition for the following compound: C#CCNc1nc(C(C)C)nc2c1nnn2Cc1ccccc1F
-2.63

Return activity change, negative = inhibition for the following compound: CCOC(=O)c1nc(-c2ccc3c(c2)OCO3)[nH]c1C
-11.1

Return activity change, negative = inhibition for the following compound: CC/C=C\C/C=C\C/C=C\C/C=C\C/C=C\C/C=C\CCC(=O)NCCc1ccc(O)c(O)c1
-14.7

Return activity change, negative = inhibition for the following compound: C[C@@]12CCC(=O)C=C1CC[C@H]1C2[C@@H](O)C[C@]2(C)[C@@H]1CC[C@@]2(O)C(=O)COC(=O)C1CCCC1 (stereo partly drawn)
2.72

Return activity change, negative = inhibition for the following compound: Clc1ccccc1-c1cc(COc2ccc3ccccc3c2)no1
-25.6

Return activity change, negative = inhibition for the following compound: CCCCN(CC)C(=S)Nc1ccc2nc3n(c(=O)c2c1)CCCCC3
-1.94

Return activity change, negative = inhibition for the following compound: Cc1ccc(/C=N/NC(=O)CNC(=O)COc2ccccc2)o1
-5.29

Return activity change, negative = inhibition for the following compound: O=C(CSc1nnc(Nc2ccccc2)s1)Nc1cccnc1Cl
-3.17

Return activity change, negative = inhibition for the following compound: CC1(c2ccccc2)CC(C)(C)N(C(=O)c2cc([N+](=O)[O-])cc([N+](=O)[O-])c2)c2ccccc21 (stereo not drawn)
-4.13

Return activity change, negative = inhibition for the following compound: Cc1cc(C(=O)NNC(=S)Nc2ccccc2C)cs1
-17.5

Return activity change, negative = inhibition for the following compound: CC(C)(C)C(=O)NC(NC(=S)Nc1ccc(S(N)(=O)=O)cc1)C(Cl)(Cl)Cl (stereo not drawn)
-0.407

Return activity change, negative = inhibition for the following compound: O=C(Cc1cc(=O)[nH][nH]1)N/N=C/c1ccccc1[N+](=O)[O-]
-14.9
